Hey, just so you know, these numbers are from patent US10370425B2.

- System tested: amylin receptor, AMY1, a CT (calcitonin) receptor/RAMP1 (receptor-activity modifying protein) complex (Homo sapiens, UniProt O60894+P30988)
- Construct: host or cells: CHO-K1/AMY1/Gα15
- Sequence (P30988 25-474): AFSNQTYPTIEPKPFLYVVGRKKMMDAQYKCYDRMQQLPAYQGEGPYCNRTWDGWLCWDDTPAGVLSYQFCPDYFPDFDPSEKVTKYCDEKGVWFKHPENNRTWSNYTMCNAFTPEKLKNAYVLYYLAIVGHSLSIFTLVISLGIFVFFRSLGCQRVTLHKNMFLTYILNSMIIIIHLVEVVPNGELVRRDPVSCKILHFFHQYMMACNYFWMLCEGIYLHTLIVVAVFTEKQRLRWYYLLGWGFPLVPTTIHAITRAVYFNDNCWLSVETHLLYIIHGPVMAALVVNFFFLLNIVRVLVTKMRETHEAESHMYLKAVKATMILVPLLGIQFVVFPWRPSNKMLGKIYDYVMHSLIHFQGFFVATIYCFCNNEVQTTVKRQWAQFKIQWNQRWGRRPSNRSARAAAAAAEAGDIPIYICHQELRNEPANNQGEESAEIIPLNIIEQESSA
- Sequence (O60894 27-148): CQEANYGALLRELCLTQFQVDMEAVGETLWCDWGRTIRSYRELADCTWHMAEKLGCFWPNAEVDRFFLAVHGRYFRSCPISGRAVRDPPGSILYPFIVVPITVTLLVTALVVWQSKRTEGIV
- Protocol summary: Calcium flux assay (FLIPR Calcium 4) of inhibition of α-CGRP stimulation in CHO-K1/AMY1/Gα15 cells
- Assay type: cell-based
- Assay setup: CHO-K1/AMY1/Gα15 calcium flux; read-out: IC50 value
pIC50: −log10 of the molar value. No end group written: not given here.
Property: pIC50

chain="VLGKLSQELHKLQTYPRTNTGSNTY [AC187, reference compound]" reported_value=5.10

====

- System tested: amylin receptor, AMY1, a CT (calcitonin) receptor/RAMP1 (receptor-activity modifying protein) complex (Homo sapiens, UniProt O60894+P30988)
- Construct: host or cells: CHO-K1/AMY1/Gα15
- Protocol summary: Calcium flux assay (FLIPR Calcium 4) of inhibition of α-CGRP stimulation in CHO-K1/AMY1/Gα15 cells
- Format: cell-based
- Assay setup: positive control; CHO-K1/AMY1/Gα15 cells stimulated with α-CGRP; read-out: IC50 nM (assay positive control)
No end group written: not given here.
Property: IC50 (nM)

chain="VLGKLSQELHKLQTYPRTNTGSNTY [AC187, reference compound]" property=IC50 reported_value=8150
